Data origin: paper PMC11999280

# Tested on: mCherry-GAL9 expressing SHSY5Y cells
# assay.notes: GAL9 recruitment assay, SHSY5Y
# Type: cell-based
# run.parameters: EEE 0.62 µM, calculated mean from >3 independent exp.
experimental.readout: Gal9 response compared to reference
Lab note: record the figure alone, no unit after it.

Below, 5 compounds whose answers are already recorded.
> print(dat)
                                smiles.repr                 experimental.readout  recorded.result
1  COc1nn(C2CCNCC2)cc1Nc1ncc(C(F)(F)F)c(-c2c[nH]c3ccccc23)n1  Gal9 response compared to reference            0.015
2  COc1nn(C2CCN(C)CC2)cc1Nc1ncc(F)c(-n2ccc3ccc(C#N)cc32)n1  Gal9 response compared to reference            0.014
3  CCN1CCC(n2cc(Nc3ncc(F)c(-n4ccc5c(C#N)cccc54)n3)c(OC)n2)CC1  Gal9 response compared to reference            0.018
4  CCCN1CCC(n2cc(Nc3ncc(F)c(-n4ccc5c(C#N)cccc54)n3)c(OC)n2)CC1  Gal9 response compared to reference            0.024
5  CCOc1nn(C2CCN(C)CC2)cc1Nc1ncc(C(F)(F)F)c(-c2c[nH]c3ccccc23)n1  Gal9 response compared to reference            0.017

Q: Tell me the measured Gal9 response compared to reference of COc1nn(C2CCN(C)CC2)cc1Nc1ncc(Cl)c(-n2ccc3c(C#N)cccc32)n1 , please.
A: 0.013

Q: Tell me the measured Gal9 response compared to reference of COc1nn(C2CCN(C(C)C)CC2)cc1Nc1ncc(F)c(-n2ccc3c(C#N)cccc32)n1 , please.
A: 0.016

Q: Tell me the measured Gal9 response compared to reference of CCOc1nn(C2CCN(C)CC2)cc1Nc1ncc(F)c(-n2ccc3c(C#N)cccc32)n1 , please.
A: 0.015

Q: Tell me the measured Gal9 response compared to reference of COc1nn(C2CCN(C)CC2)cc1Nc1ncc(F)c(-n2ccc3c(C#N)cccc32)n1 , please.
A: 0.082

Q: Tell me the measured Gal9 response compared to reference of COc1nn(C2CCNCC2)cc1Nc1ncc(F)c(-n2ccc3c(C#N)cccc32)n1 , please.
A: 0.315

Q: Tell me the measured Gal9 response compared to reference of COc1nn(C2CCN(CCCO)CC2)cc1Nc1ncc(F)c(-n2ccc3c(C#N)cccc32)n1 , please.
A: 0.271

Q: Tell me the measured Gal9 response compared to reference of COc1nn(C2CCNCC2)cc1Nc1ncc(F)c(-c2c[nH]c3ccccc23)n1 , please.
A: 0.015

Q: Tell me the measured Gal9 response compared to reference of COc1nn(C2CCN(C)CC2)cc1Nc1ncc(C(F)(F)F)c(-n2ccc3c(C#N)cccc32)n1 , please.
A: 0.014

---

Measured Gal9 response compared to reference values are reported for all entries that follow.
# Tested on: mCherry-GAL9 expressing HEK293 cells
# assay.notes: GAL9 recruitment assay, HEK293
# Type: cell-based
# run.parameters: EEE 0.62 µM, calculated mean from >3 independent exp.
Lab note: record the figure alone, no unit after it.

Below, 3 compounds whose answers are already recorded.
> print(dat)
                                smiles.repr  recorded.result
1  CCOc1nn(C2CCN(C)CC2)cc1Nc1ncc(C(F)(F)F)c(-c2c[nH]c3ccccc23)n1            0.019
2  COc1nn(C2CCN(CCCO)CC2)cc1Nc1ncc(F)c(-n2ccc3c(C#N)cccc32)n1            0.122
3  COc1nn(C2CCN(C)CC2)cc1Nc1ncc(C(F)(F)F)c(-n2ccc3c(C#N)cccc32)n1            0.020

Lab note: next compound to report on.
Q: Item COc1nn(C2CCN(C)CC2)cc1Nc1ncc(Cl)c(-n2ccc3c(C#N)cccc32)n1 with mCherry-GAL9 expressing HEK293 cells - Gal9 response compared to reference?
A: 0.022

---

Measured Gal9 response compared to reference values are reported for all entries that follow.
# Tested on: mCherry-GAL9 expressing SHSY5Y cells
# assay.notes: GAL9 recruitment assay, SHSY5Y
# Format: cell-based
# run.parameters: EEE 0.31 µM, calculated mean from >3 independent exp.
Lab note: record the figure alone, no unit after it.

Below, 10 compounds whose answers are already recorded.
> print(dat)
                                 smiles.repr                 experimental.readout  recorded.result
 1  COc1nn(C2CCN(CCCO)CC2)cc1Nc1ncc(F)c(-n2ccc3c(C#N)cccc32)n1  Gal9 response compared to reference            0.014
 2  COc1nn(C2CCNCC2)cc1Nc1ncc(C(F)(F)F)c(-c2c[nH]c3ccccc23)n1  Gal9 response compared to reference            0.016
 3  COc1nn(C2CCN(C)CC2)cc1Nc1ncc(F)c(-n2ccc3ccc(C#N)cc32)n1  Gal9 response compared to reference            0.013
 4  COc1nn(C2CCNCC2)cc1Nc1ncc(F)c(-n2ccc3c(C#N)cccc32)n1  Gal9 response compared to reference            0.016
 5  COc1nn(C2CCN(C(C)C)CC2)cc1Nc1ncc(F)c(-n2ccc3c(C#N)cccc32)n1  Gal9 response compared to reference            0.013
 6  COc1nn(C2CCN(C)CC2)cc1Nc1ncc(Cl)c(-n2ccc3c(C#N)cccc32)n1  Gal9 response compared to reference            0.014
 7  CCCN1CCC(n2cc(Nc3ncc(F)c(-n4ccc5c(C#N)cccc54)n3)c(OC)n2)CC1  Gal9 response compared to reference            0.015
 8  COc1nn(C2CCN(C)CC2)cc1Nc1ncc(F)c(-n2ccc3c(C#N)cccc32)n1  Gal9 response compared to reference            0.014
 9  COc1nn(C2CCN(C)CC2)cc1Nc1ncc(C(F)(F)F)c(-n2ccc3c(C#N)cccc32)n1  Gal9 response compared to reference            0.014
10  CCOc1nn(C2CCN(C)CC2)cc1Nc1ncc(C(F)(F)F)c(-c2c[nH]c3ccccc23)n1  Gal9 response compared to reference            0.014

Q: Tell me the measured Gal9 response compared to reference of COc1nn(C2CCNCC2)cc1Nc1ncc(F)c(-c2c[nH]c3ccccc23)n1 , please.
A: 0.013

Q: Tell me the measured Gal9 response compared to reference of CCOc1nn(C2CCN(C)CC2)cc1Nc1ncc(F)c(-n2ccc3c(C#N)cccc32)n1 , please.
A: 0.014

Q: Tell me the measured Gal9 response compared to reference of CCN1CCC(n2cc(Nc3ncc(F)c(-n4ccc5c(C#N)cccc54)n3)c(OC)n2)CC1 , please.
A: 0.014

---

Measured Gal9 response compared to reference values are reported for all entries that follow.
# Tested on: mCherry-GAL9 expressing SHSY5Y cells
# assay.notes: GAL9 recruitment assay, SHSY5Y
# Format: cell-based
# run.parameters: EEE 1.25 µM, calculated mean from >3 independent exp.

Below, 2 compounds whose answers are already recorded.
> print(dat)
                                smiles.repr                        assayed.system  recorded.result
1  CCCN1CCC(n2cc(Nc3ncc(F)c(-n4ccc5c(C#N)cccc54)n3)c(OC)n2)CC1  mCherry-GAL9 expressing SHSY5Y cells            0.123
2  CCOc1nn(C2CCN(C)CC2)cc1Nc1ncc(F)c(-n2ccc3c(C#N)cccc32)n1  mCherry-GAL9 expressing SHSY5Y cells            0.012

Q: Tell me the measured Gal9 response compared to reference of COc1nn(C2CCNCC2)cc1Nc1ncc(F)c(-c2c[nH]c3ccccc23)n1 , please.
A: 0.013

Q: Tell me the measured Gal9 response compared to reference of COc1nn(C2CCNCC2)cc1Nc1ncc(C(F)(F)F)c(-c2c[nH]c3ccccc23)n1 , please.
A: 0.010

Q: Tell me the measured Gal9 response compared to reference of CCOc1nn(C2CCN(C)CC2)cc1Nc1ncc(C(F)(F)F)c(-c2c[nH]c3ccccc23)n1 , please.
A: 0.014

Q: Tell me the measured Gal9 response compared to reference of CCN1CCC(n2cc(Nc3ncc(F)c(-n4ccc5c(C#N)cccc54)n3)c(OC)n2)CC1 , please.
A: 0.385

Q: Tell me the measured Gal9 response compared to reference of COc1nn(C2CCN(C)CC2)cc1Nc1ncc(F)c(-n2ccc3ccc(C#N)cc32)n1 , please.
A: 0.017

Q: Tell me the measured Gal9 response compared to reference of COc1nn(C2CCN(CCCO)CC2)cc1Nc1ncc(F)c(-n2ccc3c(C#N)cccc32)n1 , please.
A: 0.742

Q: Tell me the measured Gal9 response compared to reference of COc1nn(C2CCN(C)CC2)cc1Nc1ncc(F)c(-n2ccc3c(C#N)cccc32)n1 , please.
A: 0.694

Q: Tell me the measured Gal9 response compared to reference of COc1nn(C2CCN(C)CC2)cc1Nc1ncc(C(F)(F)F)c(-n2ccc3c(C#N)cccc32)n1 , please.
A: 0.012

Q: Tell me the measured Gal9 response compared to reference of COc1nn(C2CCNCC2)cc1Nc1ncc(F)c(-n2ccc3c(C#N)cccc32)n1 , please.
A: 0.678

Q: Tell me the measured Gal9 response compared to reference of COc1nn(C2CCN(C(C)C)CC2)cc1Nc1ncc(F)c(-n2ccc3c(C#N)cccc32)n1 , please.
A: 0.117

Q: Tell me the measured Gal9 response compared to reference of COc1nn(C2CCN(C)CC2)cc1Nc1ncc(Cl)c(-n2ccc3c(C#N)cccc32)n1 , please.
A: 0.012
